Experimental system: human APJ receptor (Homo sapiens (Human))
Sequence (P35414 whole entry): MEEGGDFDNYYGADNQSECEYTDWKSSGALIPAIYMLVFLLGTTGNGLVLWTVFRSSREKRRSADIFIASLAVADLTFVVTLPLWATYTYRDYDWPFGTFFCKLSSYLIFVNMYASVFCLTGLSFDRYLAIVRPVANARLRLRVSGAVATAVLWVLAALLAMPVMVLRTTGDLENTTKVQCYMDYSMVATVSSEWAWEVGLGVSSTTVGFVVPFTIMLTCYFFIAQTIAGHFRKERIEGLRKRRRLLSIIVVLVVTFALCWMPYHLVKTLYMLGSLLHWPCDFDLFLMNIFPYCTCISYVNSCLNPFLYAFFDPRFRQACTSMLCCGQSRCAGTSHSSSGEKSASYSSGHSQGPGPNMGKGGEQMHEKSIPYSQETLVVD
Experiment description: [35S]GTPγS binding assay on membranes from CHO cells stably expressing human APJ receptor
Condition label: membranes of CHO cells stably expressing human APJ receptor, read-out: Activity hAPJ SPA EC50 IP
Outcome measure: EC50 (nM)
Enter your answer as a number in nM; do not include the unit.

Answered examples (4):
What the record says about COc1cccc(-c2nnc(NS(=O)(=O)[C@@H](C)[C@H](OC)c3ncc(Cl)cn3)n2C2CC2(F)F)n1 (mixture of isomers) [Example 156.0] : EC50 is 37

The reported value for COCC1(n2c(NS(=O)(=O)[C@@H](C)[C@H](OC)c3ncc(Cl)cn3)nnc2-c2ccccn2)CCC1 [Example 51.0] in terms of EC50 is 1.8

// EC50 lookup, compound = COCCn1c(NS(=O)(=O)[C@@H](C)[C@H](OC)c2ncc(Cl)cn2)nnc1-c1ccccn1 [Example 132.0] , result: 150

Form: compound = COc1cccc(-c2nnc(NS(=O)(=O)[C@@H](C)[C@H](OC)c3ncc(Cl)cn3)n2[C@H](C)c2cccnc2)n1 (single isomer, unassigned) [Example 350.0] ; EC50 = 7.84

More entries:
EC50 for COCC(COC)n1c(NS(=O)(=O)[C@@H](C)[C@H](OC)c2ncc(Cl)cn2)nnc1-c1cccc(OC)n1 [Example 6.0] is 0.3

According to the records, this compound COCCn1c(NS(=O)(=O)[C@@H](C)[C@H](C)c2ncc(OC)cn2)nnc1-c1ccccn1 [Example 21.0] displays EC50 of 430

EC50 for COc1cccc(-c2nnc(NS(=O)(=O)[C@@H](C)[C@@H](OC(C)C)c3ncc(C)cn3)n2[C@@H](C)c2ncn(C)n2)n1 (single isomer, unassigned) [Example 233.0] is 10

Lab note: measured EC50 of CCc1cc(Cn2c(NS(=O)(=O)[C@@H](C)[C@@H](OC(C)C)c3ncc(C)cn3)nnc2-c2cccc(OC)n2)on1 [Example 294.0] was 5.4

For record COc1cccc(-c2nnc(NS(=O)(=O)[C@@H](C)[C@H](OC)c3ncc(Cl)cn3)n2[C@@H]2CC23CC3)n1 (single isomer, unassigned) [Example 90.0] the listed EC50 is 6.2
